CC50 listing for selected compounds.
test system: MDA-MB-468; details: read-out: 50% lethal concentration (LC50); MDA-MB-468, Breast
Supply the numeric figure in µM, leaving out any unit text.

Record excerpt, results attached:
>  <compound>
C=C1CCC2C3(C)COC(c4cn(-c5ccccc5)nc4-c4ccc(F)cc4)OC3CCC2(C)C1CC=C1C(=O)OCC1O (stereo not drawn) [1f]

>  <CC50, µM>
5.71

$$$$
>  <compound>
C=C1CCC2C3(C)COC(c4cn(-c5ccccc5)nc4-c4cccc(Br)c4)OC3CCC2(C)C1CC=C1C(=O)OCC1O (stereo not drawn) [1e]

>  <CC50, µM>
6.37

$$$$

Turning now to a further compound:
// lookup CC50 for C=C1CCC2C3(C)COC(c4cn(-c5ccccc5)nc4-c4ccccc4)OC3CCC2(C)C1CC=C1C(=O)OCC1O (stereo not drawn) [1a]
6.58

----------
tested on: HT29; conditions: read-out: 50% lethal concentration (LC50); HT29, Colon
CC50 listing for selected molecules.
Supply the numeric figure in µM, leaving out any unit text.

>  <molecule>
C=C1CCC2C3(C)COC(c4cn(-c5ccccc5)nc4-c4ccc(F)cc4)OC3CCC2(C)C1CC=C1C(=O)OCC1O (stereo not drawn)

>  <target_system>
HT29

>  <unit_info>
µM

>  <CC50>
93.9

$$$$
>  <molecule>
C=C1CCC2C3(C)COC(c4cn(-c5ccccc5)nc4-c4cccc(Br)c4)OC3CCC2(C)C1CC=C1C(=O)OCC1O (stereo not drawn)

>  <target_system>
HT29

>  <unit_info>
µM

>  <CC50>
7.23

$$$$

Turning now to a further molecule:
Enter reported CC50 observed with HT29 for C=C1CCC2C3(C)COC(c4cn(-c5ccccc5)nc4-c4cccc([N+](=O)[O-])c4)OC3CCC2(C)C1CC=C1C(=O)OCC1O (stereo not drawn)
9.95

----------
system: UO-31; conditions: read-out: 50% lethal concentration (LC50); UO-31, Renal
CC50 listing for selected compounds.
Supply the numeric figure in µM, leaving out any unit text.

>  <compound>
C=C1CCC2C3(C)COC(c4cn(-c5ccccc5)nc4-c4ccc(C)cc4)OC3CCC2(C)C1CC=C1C(=O)OCC1O (stereo not shown)

>  <readout_type>
CC50

>  <recorded_measurement>
5.36

$$$$
>  <compound>
C=C1CCC2C3(C)COC(c4cn(-c5ccccc5)nc4-c4cccc(Cl)c4)OC3CCC2(C)C1CC=C1C(=O)OCC1O (stereo not shown)

>  <readout_type>
CC50

>  <recorded_measurement>
5.63

$$$$
>  <compound>
C=C1CCC2C3(C)COC(c4cn(-c5ccccc5)nc4-c4ccc(OC)cc4)OC3CCC2(C)C1CC=C1C(=O)OCC1O (stereo not shown)

>  <readout_type>
CC50

>  <recorded_measurement>
5.25

$$$$

// lookup CC50 for C=C1CCC2C3(C)COC(c4cn(-c5ccccc5)nc4-c4cccc(Br)c4)OC3CCC2(C)C1CC=C1C(=O)OCC1O (stereo not shown)
6.83

Also check C=C1CCC2C3(C)COC(c4cn(-c5ccccc5)nc4-c4ccc(Cl)cc4)OC3CCC2(C)C1CC=C1C(=O)OCC1O (stereo not shown)
5.6

Also check C=C1CCC2C3(C)COC(c4cn(-c5ccccc5)nc4-c4ccccc4)OC3CCC2(C)C1CC=C1C(=O)OCC1O (stereo not shown)
5.36

Also check C=C1CCC2C3(C)COC(c4cn(-c5ccccc5)nc4-c4ccc(F)cc4)OC3CCC2(C)C1CC=C1C(=O)OCC1O (stereo not shown)
5.14

Also check C=C1CCC2C3(C)COC(c4cn(-c5ccccc5)nc4-c4cccc(F)c4)OC3CCC2(C)C1CC=C1C(=O)OCC1O (stereo not shown)
5.46

Also check C=C1CCC2C3(C)COC(c4cn(-c5ccccc5)nc4-c4cccc([N+](=O)[O-])c4)OC3CCC2(C)C1CC=C1C(=O)OCC1O (stereo not shown)
35.7

Also check C=C1CCC2C3(C)COC(c4cn(-c5ccccc5)nc4-c4ccc(Br)cc4)OC3CCC2(C)C1CC=C1C(=O)OCC1O (stereo not shown)
5.34
